- target under test: OsWOX13 (Oryza sativa, UniProt Q5QMM3 1-267)
- Sequence: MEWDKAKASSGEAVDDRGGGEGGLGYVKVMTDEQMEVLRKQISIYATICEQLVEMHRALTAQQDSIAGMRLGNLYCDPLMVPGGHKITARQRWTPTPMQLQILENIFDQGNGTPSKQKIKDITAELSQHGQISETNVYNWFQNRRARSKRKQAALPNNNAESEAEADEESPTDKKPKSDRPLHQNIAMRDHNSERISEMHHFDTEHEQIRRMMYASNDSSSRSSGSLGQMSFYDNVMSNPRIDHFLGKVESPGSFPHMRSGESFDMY
- protocol description: protein-binding microarray (RPBM); PBS, 2% BSA, 51.3 ng/ul salmon testes DNA, 50 uM zinc acetate, 200 nM TF, 25 C, 1 h; high values mean tight binding
- test conditions: protein: recombinant; tags: N-terminal polyhistidine and DsRed monomer fusion (pET32a); label: CyDye5-dUTP incorporated in the synthesized complementary strand; 3' TTTTT single-stranded linker to array surface; dsDNA, one strand shown
In all, about 35,000 sequences were measured (“fluorescence intensity (a.u.)”: median about 10,000, highest 2% from about 52,000 on). Many of the other results were omitted from the sample, so the highest values are more common in it than they were.
result type: binding signal

item sequence: TATGATATGTCAAATCCTATAATTTCTTCGTCCCAAAATGCGGAGTCACCTAGTGCAG
result type: binding signal
value: 3440 fluorescence intensity (a.u.)
--
item sequence: CTGTGAATTGATTCATCTCTCACACATGGTTCTCCACTATCGGAGTCACCTAGTGCAG
result type: binding signal
value: 9680 fluorescence intensity (a.u.)

// returns reported binding signal for input TGTGATTTATATCGTGGAAGATGATGGCTTGGCGGTATAGCGGAGTCACCTAGTGCAG
36300 fluorescence intensity (a.u.)

// returns reported binding signal for input CCTGATTGGTTGTATTGCTTGAAGTAGACTATTGAGATTGCGGAGTCACCTAGTGCAG
60200 fluorescence intensity (a.u.)

// returns reported binding signal for input CGTAATTGCATCTCTATTTTCATCTCTACTTCATTTCTCTCGGAGTCACCTAGTGCAG
37900 fluorescence intensity (a.u.)

// returns reported binding signal for input AAGCCAATTAAACAACCAGATACTCAAGTTATAACATAATCGGAGTCACCTAGTGCAG
3700 fluorescence intensity (a.u.)

// returns reported binding signal for input AAAAGAAGTTAATTATAATTAATTGTGATAAGAGGATAGACGGAGTCACCTAGTGCAG
29400 fluorescence intensity (a.u.)

// returns reported binding signal for input ATAAAATAAATGATAATTACATAAATTTCTTTAAATAAGACGGAGTCACCTAGTGCAG
10900 fluorescence intensity (a.u.)

// returns reported binding signal for input TTGATTGATGTCATTTAAATTATCATTGGTCTTGGTGTATCGGAGTCACCTAGTGCAG
41100 fluorescence intensity (a.u.)

// returns reported binding signal for input AAATGAGATGACAATGATGATGATGATGGTTTCATCACCCCGGAGTCACCTAGTGCAG
4620 fluorescence intensity (a.u.)

// returns reported binding signal for input ATGCAGTAATTAATCAATTAACTAATTAACTCACCCCATGCGGAGTCACCTAGTGCAG
47800 fluorescence intensity (a.u.)
